Target: T1, human serum albumin (human, UniProt P02768 25-609)
T1 construct: Negative control antigen of the screening ELISA; also called HSA
T1 sequence (P02768 25-609 limits assumed): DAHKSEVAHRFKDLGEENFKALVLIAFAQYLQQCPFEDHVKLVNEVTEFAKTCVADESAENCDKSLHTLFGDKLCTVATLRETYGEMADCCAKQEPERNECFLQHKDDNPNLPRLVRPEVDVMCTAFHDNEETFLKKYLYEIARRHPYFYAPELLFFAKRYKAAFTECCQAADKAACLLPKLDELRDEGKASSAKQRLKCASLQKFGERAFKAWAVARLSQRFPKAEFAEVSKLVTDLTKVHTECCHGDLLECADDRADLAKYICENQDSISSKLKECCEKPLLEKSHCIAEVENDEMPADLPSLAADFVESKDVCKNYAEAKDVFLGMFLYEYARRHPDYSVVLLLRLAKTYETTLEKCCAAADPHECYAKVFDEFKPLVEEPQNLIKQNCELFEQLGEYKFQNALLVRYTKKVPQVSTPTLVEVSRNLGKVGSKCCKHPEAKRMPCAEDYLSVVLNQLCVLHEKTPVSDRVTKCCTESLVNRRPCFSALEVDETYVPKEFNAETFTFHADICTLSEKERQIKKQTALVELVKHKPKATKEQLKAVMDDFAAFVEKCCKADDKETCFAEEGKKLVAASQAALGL
Test: ELISA, bacterial lysate on plate-bound antigen, luminescence
Procedure: Streptavidin-coated Maxisorp plates (Nunc catalog 436110) were blocked for 1 h in Starting Block T20 (Pierce) and then coated with biotinylated CD137 (using same antigen as in panning) or negative controls (an unrelated Fc-fused recombinant protein and human serum albumin) for 1 h. Plates were rinsed with TBST and diluted lysate was applied to plates for 1 h. […]
Everything with ELISA HSA (RLU) lower than 500 RLU is n; everything else, including exactly 500 RLU, is y.

Can ISOP120HR5P1H8 (designed binder, not shown: small tags and cut ends, FN3 domain (Centyrin); tested as E. coli lysate) LPAPKNLVVSRVTEDSARLSWTAPDAAFDSFDIYYYELRLGGEAIVLTVPGSERSYDLTGLKPGTEYLVTIYGVKGGYYSGPLSAIFTT be said to have ELISA HSA (RLU) at or above 500 RLU?
n

Can ISOP120BR5P1A5 (designed binder, not shown: small tags and cut ends, FN3 domain (Centyrin); tested as E. coli lysate) LPAPKNLVVSRVTEDSARLSWAGHYRKIRNFDSFLIQYQESEKVGEAIVLTVPGSKRSYDLTGLKPGTEYTVSIYGVKFPYYYATADSNPLSAIFTT be said to have ELISA HSA (RLU) at or above 500 RLU?
n

Can ISOP120FR5P1H5 (designed binder, not shown: small tags and cut ends, FN3 domain (Centyrin); tested as E. coli lysate) LPAPKNLVVSRVTEDSARLSWTAPDAAFDSLQIYYFEWVVGGEAIVLTVPGSERSYDLTGLKLGTEYLVTIYGVKGGNFSDPLSAIFTT be said to have ELISA HSA (RLU) at or above 500 RLU?
y

Can ISOP120GR5P1C10 (designed binder, not shown: small tags and cut ends, FN3 domain (Centyrin); tested as E. coli lysate) LPAPKNLVVSRVTEDSARLSWTAPDGAFDSFEIPYIEVETIGEAIWLHVPGSERSYDLTGLKPGTEYSVGINGVKGGHTSNPLSARFTT be said to have ELISA HSA (RLU) at or above 500 RLU?
n

Can ISOP120HR5P1D7 (designed binder, not shown: small tags and cut ends, FN3 domain (Centyrin); tested as E. coli lysate) LPAPKNLVVSRVTEDSARLSWTAPDAAFDSFDIYYLESWTRGEAIVLTVPGSERSYDLTGLKPGTEYLVTIYGVKGGSYSRPLSAIFTT be said to have ELISA HSA (RLU) at or above 500 RLU?
n

Can ISOP120ER5P1B12 (designed binder, not shown: small tags and cut ends, FN3 domain (Centyrin); tested as E. coli lysate) LPAPKNLVVSRVTEDSARLSWTAPDAAFDSFAIYYIEWTAYGEAIVLTVPGSERSYDLTGLKPGTEYVVRISGVKCGIVSFPLSAIFTT be said to have ELISA HSA (RLU) at or above 500 RLU?
y

Can ISOP120BR5P1D3 (designed binder, not shown: small tags and cut ends, FN3 domain (Centyrin); tested as E. coli lysate) LPAPKNLVVSRVTEDSARLSWSEHPTPFATFDSFLIQYQESEKVGEAIVLTVPGSERSYDLTGLKPGTEYTVSIYGVWWVENHFPVSNPLSAIFTT be said to have ELISA HSA (RLU) at or above 500 RLU?
n
